Data provenance is patent US20210395344A1.

Target: T1, SARS-CoV-2 Spike Glycoprotein S1 (subunit 1) (SARS-CoV-2, UniProt P0DTC2 16-685)
T1 construct: also called S1 Monomer; SARS-CoV-2 S1
Assay: ELISA binding titration
Each entry falls in a class defined on EC50; the bands are low end (below 0.5 nM), middle (0.5 nM to below 8 nM), high end (8 nM or more)

BINDER	CATEGORY_LABEL
1-7 (antibody, V domains shown) VH: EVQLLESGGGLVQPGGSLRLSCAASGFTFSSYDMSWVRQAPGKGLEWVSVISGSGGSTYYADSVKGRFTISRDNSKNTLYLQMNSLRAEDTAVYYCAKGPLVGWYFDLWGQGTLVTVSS VL: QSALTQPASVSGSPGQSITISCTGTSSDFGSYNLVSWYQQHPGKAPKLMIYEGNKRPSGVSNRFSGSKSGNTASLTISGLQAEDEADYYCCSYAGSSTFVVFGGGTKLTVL	high end
1-12 (antibody, V domains shown) VH: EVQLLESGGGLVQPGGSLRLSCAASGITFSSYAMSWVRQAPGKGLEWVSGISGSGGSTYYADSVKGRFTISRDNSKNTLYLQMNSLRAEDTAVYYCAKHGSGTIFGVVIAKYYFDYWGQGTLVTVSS VL: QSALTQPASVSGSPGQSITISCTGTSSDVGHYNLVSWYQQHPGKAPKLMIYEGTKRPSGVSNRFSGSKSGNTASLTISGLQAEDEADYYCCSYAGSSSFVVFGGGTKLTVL	middle
1-3 (antibody, V domains shown) VH: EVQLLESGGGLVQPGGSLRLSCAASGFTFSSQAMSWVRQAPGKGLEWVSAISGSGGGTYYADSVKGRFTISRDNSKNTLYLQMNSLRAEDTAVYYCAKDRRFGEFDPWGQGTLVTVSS VL: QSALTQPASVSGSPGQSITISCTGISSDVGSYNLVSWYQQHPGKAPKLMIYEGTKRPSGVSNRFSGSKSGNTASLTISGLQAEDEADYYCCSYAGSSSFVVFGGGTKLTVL	low end
1-51 (antibody, V domains shown) VH: EVQLLESGGGLVQPGGSLRLSCAASGFTFSSYAMSWVRQAPGKGLEWVSVISGSGGSTYYADSVKGRFTISRDNSKNTLYLQMNSLRAEDTAVYYCAREGYRDYLWYFDLWGQGTLVTVSS VL: QSALTQPASVSGSPGQSITISCTGTSSDVGSYDLVSWYQQHPGKAPKLMIYEGNKRPSGVSNRFSGSKSGNTASLTISGLQAEDEADYYCCSYAGSSVVFGGGTKLTVL	high end
1-2 (antibody, V domains shown) VH: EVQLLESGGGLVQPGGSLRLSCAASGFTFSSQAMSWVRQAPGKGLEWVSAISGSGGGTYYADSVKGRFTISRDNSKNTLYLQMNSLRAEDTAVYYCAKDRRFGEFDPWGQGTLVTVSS VL: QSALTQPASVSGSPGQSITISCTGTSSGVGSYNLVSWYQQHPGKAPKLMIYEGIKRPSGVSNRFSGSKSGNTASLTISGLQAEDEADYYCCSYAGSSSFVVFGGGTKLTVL	middle
1-31 (antibody, V domains shown) VH: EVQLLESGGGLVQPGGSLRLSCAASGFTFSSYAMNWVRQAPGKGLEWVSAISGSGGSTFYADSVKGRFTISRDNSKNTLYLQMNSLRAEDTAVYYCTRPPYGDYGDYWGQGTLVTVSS VL: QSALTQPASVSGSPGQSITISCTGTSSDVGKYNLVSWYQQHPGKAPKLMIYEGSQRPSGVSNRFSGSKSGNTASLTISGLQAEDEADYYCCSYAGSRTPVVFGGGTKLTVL	low end
1-28 (antibody, V domains shown) VH: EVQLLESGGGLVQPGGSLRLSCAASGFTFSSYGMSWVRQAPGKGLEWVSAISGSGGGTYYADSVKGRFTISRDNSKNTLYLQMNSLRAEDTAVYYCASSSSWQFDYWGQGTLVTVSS VL: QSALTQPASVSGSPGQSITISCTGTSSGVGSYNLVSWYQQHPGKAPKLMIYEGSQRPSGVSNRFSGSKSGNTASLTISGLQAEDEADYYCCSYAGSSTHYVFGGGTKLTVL	middle
1-4 (antibody, V domains shown) VH: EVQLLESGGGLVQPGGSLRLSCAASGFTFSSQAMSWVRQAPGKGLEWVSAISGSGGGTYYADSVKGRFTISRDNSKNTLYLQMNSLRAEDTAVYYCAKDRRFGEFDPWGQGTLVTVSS VL: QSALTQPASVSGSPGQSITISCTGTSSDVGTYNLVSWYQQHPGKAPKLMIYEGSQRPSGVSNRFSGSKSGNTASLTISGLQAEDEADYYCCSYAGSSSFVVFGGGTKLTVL	middle
1-27 (antibody, V domains shown) VH: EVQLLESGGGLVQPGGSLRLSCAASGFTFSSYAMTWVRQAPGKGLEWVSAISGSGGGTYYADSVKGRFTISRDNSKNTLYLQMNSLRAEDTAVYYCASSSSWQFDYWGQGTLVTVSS VL: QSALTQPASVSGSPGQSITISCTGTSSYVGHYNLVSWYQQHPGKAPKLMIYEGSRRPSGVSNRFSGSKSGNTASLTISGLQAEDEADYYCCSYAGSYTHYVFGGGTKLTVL	low end
